system: NCI-H522 lung; assay: NCI-60 one-dose screen, 48 h (100 = growth as untreated, 0 = no growth, -100 = all killed); details: 10 µM unless noted
Compounds without any hit were thinned out: in the full panel of roughly 83,000, 20% have a hit. Activity calls are given as the source filed them. Rule for the calls: active = growth percent below 10; inactive = the rest.
assay-readout: growth

>>> experimental_value("COc1ccc(C(=O)NC(=O)Nc2ccc3c(c2)NC(=O)/C3=C\\c2[nH]c(C)c(C(=O)O)c2C)c(F)c1")
"37.8% (inactive)"
>>> experimental_value("O=C(COc1ccc(Cl)cc1)N1CCN(Cc2ccc3c(c2)OCO3)CC1")
"93.8% (inactive)"
>>> experimental_value("CN(C)CC/C=C1\\c2ccccc2Sc2ccc(Cl)cc21")
"67.5% (inactive)"
>>> experimental_value("COc1ccc(Cl)cc1NC(=O)c1cc2c([nH]1)-c1nc(N)sc1CCC2")
"64.3% (inactive)"
>>> experimental_value("CC(C)Cn1cnc2c3ccccc3nc(NCn3nc(-c4cc(Cl)cc(Cl)c4Cl)oc3=S)c21")
"74% (inactive)"
>>> experimental_value("COc1ccc2c(-c3ccc(F)cc3)c(C#N)c(=NC(C)=O)oc2c1")
"5.83% (active)"

Reported growth ( O=C(Nc1ccc(-n2cc(-c3ccncc3)c(-c3ccc(O)c(Cl)c3)n2)cc1)Nc1ccc(Cl)c(C(F)(F)F)c1 ) = 9.38% (active)

Reported growth ( C=CC(C)(O)CCC1C(=C)CCC2C(C)(C)CCCC12C (stereo unspecified) ) = 72.4% (inactive)

Reported growth ( COc1cc(C(=O)NNC(=O)c2ccccc2O)cc(OC)c1OC ) = 61.9% (inactive)

Reported growth ( CCc1c(C)c2cc3c(c(C)c2oc1=O)OCC(=O)N3 ) = 58.2% (inactive)

Reported growth ( O=S(=O)(CCN1CCOCC1)Nc1cc(-c2ccc3ncnc(Nc4ccc(F)c(Cl)c4)c3c2)cnc1Cl ) = 17.2% (inactive)

Reported growth ( Nc1nccc(=S)[nH]1 ) = 63.2% (inactive)

Reported growth ( CCOc1cccc(Nc2nc(N)nc3[nH]c4ccc(O)cc4c23)c1 ) = 49.2% (inactive)

Reported growth ( COc1ccc(-c2c(C#N)cnc(N)c2-c2nc3cc(C)c(C)cc3[nH]2)cc1 ) = 45.6% (inactive)

---

// reported growth per item
system: UO-31 renal; test: NCI-60 one-dose screen, 48 h (100 = growth as untreated, 0 = no growth, -100 = all killed); settings: 10 µM unless noted
About 83,000 compounds went through this panel and 20% of them were active in at least one assay; those are over-represented in the sample as a whole. Activity calls are given as the source filed them. The calls were made as follows: active = growth percent below 10; inactive = the rest.

Reported growth ( COC(=O)c1oc2c(C(=O)/C=C/c3ccc(OC)cc3)c(OCCN3CCOCC3)ccc2c1C ) = -66.4% (active)

Reported growth ( CC1=C[S+](c2ccccc2)c2cccc3cc4ccccc4c1c23 (stereo unspecified) ) = -39.5% (active)

Reported growth ( CC(=S)Nc1ccccc1 ) = 81.5% (inactive)

Reported growth ( COc1cc(NC(=O)c2cc(OC)c3ccn(C)c3c2)cc2c1C[C@]1(C)CC[C@@H](O)C(C)(C)[C@H]1O2 ) = 2.9% (active)

Reported growth ( O=C(/C=C/c1ccccc1)Oc1ccc(/C=C/c2cc(OC(=O)/C=C/c3ccccc3)cc(OC(=O)/C=C/c3ccccc3)c2)cc1 ) = 82.9% (inactive)

Reported growth ( CC(C)[C@@H]1NC(=O)[C@]2(C)CSC(=N2)c2ccnc(c2)CNC(=O)C[C@@H](/C=C/CCS)OC1=O ) = 12% (inactive)

Reported growth ( CC1=C2C(=C[C@@](C)(CO)[C@@H]2OC(=O)N(C)CCN(C)C(=O)OC(C)(C)C)C(=O)[C@](C)(O)C12CC2 ) = -60.4% (active)

Reported growth ( COc1ccc(-c2ccc(NC(=O)Nc3cccc(C(F)(F)F)c3)c(C)n2)cc1 ) = 55.1% (inactive)

Reported growth ( CC[C@H]1[C@@H]2C=C[C@@H]3[C@H]4C/C=C\C(=O)NCCC[C@@H]5NC(=O)/C(=C(O)/C=C/[C@@H]4C[C@@H]3[C@H]2C[C@H]1C)C5=O ) = -78.2% (active)

Reported growth ( CCNC(=O)Oc1ccc(/C(=C(/CC)Cc2ccccc2)c2ccc(OCCN3CCOCC3)cc2)cc1 ) = 23% (inactive)

Reported growth ( C/C(=N/NC(=O)Cn1c2ccccc2c2ccncc21)c1cccs1 ) = 94.5% (inactive)

Reported growth ( Cc1cccc[n+]1CCC[n+]1ccccc1C ) = 99% (inactive)

Reported growth ( CSc1nc(N)nc2c1ncn2C ) = 94.6% (inactive)

Reported growth ( OCc1cnccc1NC12CC3CC(CC(C3)C1)C2 ) = 90.1% (inactive)

Reported growth ( Cc1cn(C2CC(F)C(CO)O2)c(=O)[nH]c1=O (stereo unspecified) ) = 77.6% (inactive)

Reported growth ( COc1cc(-c2nc(SCC(=O)Nc3ccc(C(C)=O)cc3)[nH]c(=O)c2C#N)cc(OC)c1OC ) = 49.3% (inactive)

Reported growth ( O=S(c1ccccc1)c1ccc2nnnn2n1 (stereo unspecified) ) = 73.1% (inactive)

Reported growth ( Nc1nc(-c2cc3c(cc2Cl)NC(=O)/C3=C/c2ccc(Cl)cc2)cs1 ) = 54.3% (inactive)

Reported growth ( CCC(N)(C(=O)O)c1ccc(F)cc1 (stereo unspecified) ) = 98.5% (inactive)

Reported growth ( Oc1ccc(Cl)cc1Sc1cc(Cl)ccc1O ) = 74.6% (inactive)

Reported growth ( COc1ccc(/C(Cl)=N/N=C(\Cl)c2cc(OC)c(OC)c(OC)c2)cc1OC(C)=O ) = 65.5% (inactive)
